Assay: chemical genetic growth profiling, strain panel (AID 1159580);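 also: tested at 20 µM; growth read once vehicle control cultures reached saturation at 30 °C; 1 = growth at the plate median or of vehicle wells; lower values mean less growth of the strain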
Conditions: S. cerevisiae deletion strains, growth OD, locus YPL055C, strain LGE1, stronger effect = lower value
The whole screen tested about 5,500 compounds, of which about 2,000 (36%) were called active. Another 18% or so got no clear call; they are omitted. This is one part of the list.
This section presents molecules with their documented normalized growth values.
Observed property: normalized growth

COc1ccc(C[C@H]2NC[C@H](O)[C@H]2OC(C)=O)cc1 : 0.0822
C=C(C)/C=C1/C=CC(=O)C(C)=C1 : 0.103
CN=C(NC#N)NCCSCc1nc[nH]c1C : 1.05
CC(C)(C)CC(C)(C)c1ccc(OCCOCC[N+](C)(C)Cc2ccccc2)cc1 : 0.98
CCc1nc(N)nc(N)c1-c1ccc(Cl)cc1 : 1
Cn1cc[nH]c1=S : 0.999
COc1c(O)cc2oc3cc(O)c(CC=C(C)C)c(O)c3c(=O)c2c1CC=C(C)C : 0.274
CCC1(c2ccccc2)C(=O)NCNC1=O : 1.01
Cc1nc(N=Nc2ccc(C(=O)O)cc2)c(COP(=O)(O)O)c(C=O)c1O : 1.01
CCCCCCCc1c(O)c2ccccc2[nH]c1=O : 1.02

----------
Experiment: chemical genetic growth profiling, strain panel (AID 1159580)
Conditions: S. cerevisiae deletion strains, growth OD, locus YDR388W
Among all 5,500 compounds or so, about 2,000 (36%) were called active. Another 18% or so got no clear call; they are omitted. Cut-off read from the data, not from the text of the source: active = normalized growth mostly below about 0.91 (no sharp cut-off); inconclusive = no clear call, values can overlap the other calls; inactive = mostly above about 0.92. The list shows a part of the results.
Outcome codes: TRUE = active, FALSE = inactive

COC1C(O)C(O)C(O)[C@@H](O)C1O (some centres undefined) : FALSE
C=C1CC[C@H](O)C/C1=C/C=C1\CCC[C@]2(C)C([C@H](C)/C=C/[C@H](C)C(C)C)CC[C@@H]12 (some centres undefined) : FALSE
COc1ccc(CC2c3cc(OC)c(OC)cc3CCN2C)cc1OC (centres undefined) : FALSE
COc1ccc2c(c1)OC[C@@H](Cc1ccc(OC)c(OC)c1)[C@@H]2O : FALSE
CCCCCC(C)N (centres undefined) : FALSE
CCC(C(N)=O)c1ccccc1 (centres undefined) : FALSE
CCCCCC(=O)O[C@]1(C(C)=O)CCC2C3CCC4=CC(=O)CC[C@]4(C)C3CC[C@@]21C (some centres undefined) : FALSE
CCN(CC)C(=S)SSC(=S)N(CC)CC : TRUE
O=C(O)C1CC([C@@H]2CCCCN2)CN2CCCCC12 (some centres undefined) : FALSE
O=[N+]([O-])O[C@H]1CO[C@H]2[C@@H]1OC[C@H]2O[N+](=O)[O-] : FALSE
CCCCOc1ccc(CC(=O)NO)cc1 : FALSE
COc1ccc(C(=O)c2ccccc2O)c(O)c1 : TRUE
CC(=O)[C@H]1CCC2C3C[C@H](C)C4=CC(=O)CC[C@]4(C)C3[C@@H](O)C[C@@]21C (some centres undefined) : FALSE
O=C(O)c1ccccc1OP(=O)(O)O : FALSE
C=CC(C)(C)c1c2c(c(O)c3c(=O)c4ccc(O)c(O)c4oc13)C=CC(C)(C)O2 : TRUE
c1ccc(CC2=NCCN2)cc1 : TRUE
c1ccc(CN(CC2=NCCN2)c2ccccc2)cc1 : FALSE
CCc1ccc(CCOc2ccc(CC3SC(=O)NC3=O)cc2)nc1 (centres undefined) : FALSE
CC1(C)C2CC[C@]3(C)C(C(=O)C=C4[C@@H]5C[C@@](C)(C(=O)O)CC[C@]5(C)CC[C@]43C)[C@@]2(C)CC[C@@H]1OC(=O)CCC(=O)O (some centres undefined) : FALSE
COc1cc(OC)c2c(c1)OC(c1ccc(OC)c(OC)c1)C(O)C2 (centres undefined) : FALSE
CC(C)[N+](C)(CCOC(=O)C1c2ccccc2Oc2ccccc21)C(C)C : FALSE
CC(C)=CCc1c(O)cc(C)oc1=O : FALSE
COc1ccc(C(=O)c2ccccc2)c(O)c1 : TRUE
COc1cc(O)c(C(=O)c2ccccc2)cc1O : FALSE

----------
Assay: chemical genetic growth profiling, strain panel (AID 1159580);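 also: tested at 20 µM; growth read once vehicle control cultures reached saturation at 30 °C; 1 = growth at the plate median or of vehicle wells; lower values mean less growth of the strain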
Settings: S. cerevisiae deletion strains, growth OD, locus YML016C, strain PPZ1
The whole screen tested about 5,500 compounds, of which about 2,000 (36%) were called active. Another 18% or so got no clear call; they are omitted. Cut-off read from the data, not from the text of the source: active = normalized growth mostly below about 0.91 (no sharp cut-off); inconclusive = no clear call, values can overlap the other calls; inactive = mostly above about 0.92. This is one part of the list.
Outcome codes: active, inactive

O=C1C[C@@H](c2ccc(O)cc2)Oc2cc(O)cc(O)c21 : inactive
COc1c(CC=C(C)C)c2c(c3oc(=O)c(-c4ccc(O)cc4)c(O)c13)C=CC(C)(C)O2 : inactive
Cc1cc(=O)c2c(O)cc(O)c(C)c2o1 : inactive
COc1ccc2c(c1)C1(C)CCC(=O)CC1CC2 (stereo unspecified) : inactive
COc1ccc([C@@H]2CC(=O)c3c(O)cc(O)cc3O2)cc1O : inactive
Cc1c(O)cc(O)c2c(=O)c(-c3ccc(O)cc3)coc12 : inactive
Cc1ccc2c(c1)CC[C@H]1CC(=O)CC[C@]21C : inactive
COc1ccc2c(c1)[C@@]1(C)CCC(=O)C[C@H]1CC2 : inactive
O=C1CC(c2ccc(O)cc2)Oc2ccccc21 (stereo unspecified) : active
COc1ccc(-c2c(O)c3cc4c(c(CC=C(C)C)c3oc2=O)OC(C)(C)CC4)cc1 : inactive
C[C@@H]1O[C@@H](O[C@H]2[C@@H](Oc3cc(O)c4c(c3)O[C@H](c3ccc(O)cc3)CC4=O)O[C@H](CO)[C@@H](O)[C@@H]2O)[C@H](O)[C@H](O)[C@H]1O : inactive
Cc1c(N(C)C)c(=O)n(-c2ccccc2)n1C : inactive
COc1c2c(c(CC=C(C)C)c3oc(=O)c(-c4ccc(O)cc4)c(O)c13)OC(C)(C)C=C2 : active
CC1(C)C2CC[C@]3(C)C(C(=O)C=C4[C@H]5C[C@@](C)(C(=O)O)CC[C@]5(C)CC[C@]43C)[C@@]2(C)CC[C@@H]1O (stereo partly specified) : inactive
Cn1cc[nH]c1=S : inactive
Cc1cc(=O)c2c(O)c(C)c(O)cc2o1 : inactive
COc1cc(OC)c2c(c1)OC(c1ccccc1)CC2=O (stereo unspecified) : inactive
NC[C@@H]1O[C@H](O[C@@H]2[C@@H](CO)OC(O[C@@H]3[C@@H](O)[C@H](N)C[C@H](N)[C@H]3OC3O[C@H](CN)[C@@H](O)[C@H](O)[C@H]3N)[C@@H]2O)[C@H](N)[C@@H](O)[C@@H]1O (stereo partly specified) : inactive
c1ccc(CC2=NCCN2)cc1 : inactive
C[N+](C)(C)CC(=O)[O-] : inactive
Oc1ccc(O)cc1 : inactive

----------
Experiment: chemical genetic growth profiling, strain panel (AID 1159580);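 also: tested at 20 µM; growth read once vehicle control cultures reached saturation at 30 °C; 1 = growth at the plate median or of vehicle wells; lower values mean less growth of the strain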
Details: S. cerevisiae deletion strains, growth OD, locus YAL040C, strain CLN3, stronger effect = lower value
Out of some 5,500 compounds screened, about 2,000 (36%) were called active. Another 18% or so got no clear call; they are omitted. The list shows a part of the results.
Observed property: normalized growth

OC[C@H]1NC[C@@H](O)[C@@H]1O : 0.993
Cc1cccc(C#Cc2ccccc2)n1 : 0.997
O=C(O)c1cc(=O)c2ccc(Cl)cc2[nH]1 : 1.01
Oc1ccc(Cn2cc[nH]c2=S)cc1 : 0.993
Ic1ccccc1CNC1C2CCN(CC2)C1C(c1ccccc1)c1ccccc1 (stereo not drawn) : 0.998
OCCN(CCO)c1nc(N2CCCCC2)c2nc(N(CCO)CCO)nc(N3CCCCC3)c2n1 : 0.999
NC(N)=Nc1nc(CSCCC(N)=NS(N)(=O)=O)cs1 : 0.997
O=c1[nH]c2ccccc2c2ccccc12 : 1.04
CCC1(c2ccc(N)cc2)CCC(=O)NC1=O (stereo not drawn) : 0.987
CCOC(=O)c1ncn2c1CN(C)C(=O)c1cc(F)ccc1-2 : 1
CCC1(c2ccccc2)C(=O)NCNC1=O : 0.982
O=C(O)[C@@H]1C[C@H](C(=O)O)N1 : 0.943
N=c1nc(N2CCCCC2)cc(N)n1O : 1.03

----------
This section presents molecules with their documented normalized growth values.
Assay: chemical genetic growth profiling, strain panel (AID 1159580);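 also: tested at 20 µM; growth read once vehicle control cultures reached saturation at 30 °C; 1 = growth at the plate median or of vehicle wells; lower values mean less growth of the strain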
Details: S. cerevisiae deletion strains, growth OD, locus YOR231W, strain MKK1, stronger effect = lower value
Screen size: about 5,500 compounds; about 2,000 (36%) were called active. Inconclusive results (about 18%) are left out. The list shows a part of the results.
Observed property: normalized growth

O=C(C=C(O)c1ccc(Br)cc1)C(=O)Nc1ccccc1 : 0.14
CC1(C)C2CC[C@]3(C)C(C(=O)C=C4[C@@H]5C[C@@](C)(C(=O)O)CC[C@]5(C)CC[C@]43C)[C@@]2(C)CC[C@@H]1OC(=O)CCC(=O)O (some centres not stated) : 1.06
CC(=O)O[C@]1(C(C)=O)CCC2C3C[C@H](C)C4=CC(=O)CC[C@]4(C)C3CC[C@@]21C (some centres not stated) : 0.998
CC(C)(CO)C(O)C(=O)NCCCO (configuration not stated) : 1.01
CC(C(=O)O)c1ccc2c(c1)[nH]c1ccc(Cl)cc12 (configuration not stated) : 0.212
NC(N)=Nc1nc(CSCCC(N)=NS(N)(=O)=O)cs1 : 0.959
O=C(CCN1CCCCC1)c1ccc(-c2ccccc2)cc1 : 0.782
O=C(O)C1CC([C@@H]2CCCCN2)CN2CCCCC12 (some centres not stated) : 0.98
CCN(CC)C(=S)SSC(=S)N(CC)CC : 0.117
CC1(C)C2CC[C@]3(C)C(C(=O)C=C4[C@H]5C[C@@](C)(C(=O)O)CC[C@]5(C)CC[C@]43C)[C@@]2(C)CC[C@@H]1O (some centres not stated) : 1
COc1ccc(NC(=O)O/N=C(/N)c2ccc(Oc3c(Cl)cncc3Cl)cc2)cc1 : 0.661
Cc1ccc(C(=O)C(C)CN2CCCCC2)cc1 (configuration not stated) : 0.984
C/C(=N/NC(N)=S)c1ccc(Oc2c(Cl)cncc2Cl)cc1 : 0.973
N#Cc1c(Cl)c(Cl)c(Cl)c(C#N)c1Cl : 0.13
C[C@H]1CC2C3CCC4=CC(=O)C=C[C@]4(C)[C@@]3(F)[C@@H](O)C[C@]2(C)[C@@]1(O)C(=O)COP(=O)(O)O (some centres not stated) : 1.08
NCC1CCCCC1CC(=O)O (configuration not stated) : 0.992
CC(C)CC1C(=O)N2CCC[C@H]2C2(O)O[C@](NC(=O)C3C=C4c5cccc6[nH]c(Br)c(c56)C[C@H]4N(C)C3)(C(C)C)C(=O)N12 (some centres not stated) : 0.981
